studySystem: T1, ZFP SBS#1398 (synthetic)
T1 chain: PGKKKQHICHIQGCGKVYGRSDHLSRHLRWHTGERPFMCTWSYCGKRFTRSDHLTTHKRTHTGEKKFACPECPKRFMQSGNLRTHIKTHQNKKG
testProtocol: EMSA
experimentalParameters: tags: MBP fusion
endpoint: pKd
Worth noting: pKd values are minus log10 of concentrations stated in mol/L.

Entry TAATGGGGG (dsDNA) DNA 1: TAATGGGGG DNA 2: CCCCCATTA , pKd reported as 10.19
